assay: In vivo pharmacokinetic study; conditions: mouse; Brain, 25 mg/kg intravenous, mice

# compound, unitsSymbol, AUC(0-t)
measured = [
    ("CN(C)c1ccc(-c2ccc(-c3nc4ccc(NCCCCCOc5ccc6c(c5)CN(C5CCC(=O)NC5=O)C6=O)cc4s3)c(C(F)(F)F)c2)cn1 (stereo not shown)", "ng·h/mL", 4070),
]

----------
experiment: In vivo pharmacokinetic study; conditions: mouse; Brain, 25 mg/kg intravenous, mice

# molecule, Tmax [h]
measured = [
    ("CN(C)c1ccc(-c2ccc(-c3nc4ccc(NCCCCCOc5ccc6c(c5)CN(C5CCC(=O)NC5=O)C6=O)cc4s3)c(C(F)(F)F)c2)cn1 (stereo not shown)", 4),
]

----------
biological target: α-synuclein (Homo sapiens (Human), UniProt P37840)

# compound, unitsSymbol, Kd
data = [
    ("CN(C)c1ccc(-c2ccc(-c3nc4ccc(OCCOCCOc5ccc6c(c5)CN(C5CCC(=O)NC5=O)C6=O)cc4s3)cc2)cn1 (stereo not shown) [Compound 163123]", "nM", 260),
    ("COc1ccc2nc(-c3ccc(-c4ccnc(NCCOCCOc5ccc6c(c5)CN(C5CCC(=O)NC5=O)C6=O)c4)cc3)oc2c1 (stereo not shown) [Compound 166123]", "nM", 480),
    ("COc1ccc2nc(-c3ccc(-c4ccnc(NCCCCCOc5ccc6c(c5)CN(C5CCC(=O)NC5=O)C6=O)c4)cc3)cn2c1 (stereo not shown) [Compound 165802]", "nM", 2440),
    ("O=C1CCC(N2Cc3cc(OCCCC(=O)Nc4ccc(-c5ccc(-c6cc7ccncc7[nH]6)cc5)cn4)ccc3C2=O)C(=O)N1 (stereo not shown) [Compound 166099]", "nM", 5630),
]

----------
Quick reference for DC50 among some molecules
target: α-synuclein aggregates (Homo sapiens (Human), UniProt P37840); experiment: ReNcell VM α-synuclein aggregation assay; format: cell-based; details: ReNcell VM cells; read-out: Activity (DC50, concentration at which 50% of α-synuclein aggregates has been degraded)

# molecule, DC50
records = [
    ("CN(C)c1ccc(-c2ccc(-c3cn4cc(OCCOCCOc5ccc6c(c5)C(=O)N(C5CCC(=O)NC5=O)C6=O)ccc4n3)cc2)c(F)n1 (stereo not drawn)", "> 10 µM"),
    ("O=C1CCC(N2Cc3cc(OCCOCCNc4cc(-c5ccc(-c6nc7ccc(F)cc7s6)cc5)ccn4)ccc3C2=O)C(=O)N1 (stereo not drawn)", "< 0.01 µM"),
    ("CN(C)c1ccc(-c2ccc(-c3nc4ccc(NC(=O)CCOCCOCCOc5ccc6c(c5)CN(C5CCC(=O)NC5=O)C6=O)cc4s3)cc2)cn1 (stereo not drawn)", "0.01 to 0.9 µM"),
    ("CN(C)c1ccc(-c2ccc(-c3nc4ccc(NCCOCCOCCOCCOCCOCCNc5cccc6c5C(=O)N(C5CCC(=O)NC5=O)C6=O)cc4s3)cc2)cn1 (stereo not drawn)", "> 10 µM"),
    ("CN(C)c1ccc(-c2ccc(-c3nc4ccc(NCCOCCOCCOCCOCCOCCOc5ccc6c(c5)CN(C5CCC(=O)NC5=O)C6=O)cc4s3)cc2)cn1 (stereo not drawn)", "0.01 to 0.9 µM"),
    ("CN(C)c1ccc2nc(-c3ccc(-c4ccnc(NCCOCCOc5ccc6c(c5)CN(C5CCC(=O)NC5=O)C6=O)c4)cc3)sc2c1 (stereo not drawn)", "> 10 µM"),
    ("Cc1ncsc1-c1ccc(CNC(=O)[C@@H]2C[C@@H](O)CN2C(=O)[C@@H](NC(=O)COCCOCCNc2ccc3nc(-c4ccc(-c5ccc(N(C)C)nc5)cc4C(F)(F)F)sc3c2)C(C)(C)C)cc1", "> 10 µM"),
    ("CN(C)c1ccc(-c2ccc(-c3nc4ccc(NCCCNC(=O)COc5ccc6c(c5)CN(C5CCC(=O)NC5=O)C6=O)cc4s3)c(C(F)(F)F)c2)cn1 (stereo not drawn)", "0.9 to 10 µM"),
    ("O=C1CCC(N2C(=O)c3ccc(OCCOCCNc4cc(-c5ccc(-c6nc7ccc(F)cc7s6)cc5)ccn4)cc3C2=O)C(=O)N1 (stereo not drawn)", "> 10 µM"),
    ("CN(C)c1ccc(-c2ccc(-c3nc4ccc(NCCOCCNc5cccc6c5C(=O)N(C5CCC(=O)NC5=O)C6=O)cc4s3)cc2)cn1 (stereo not drawn)", "> 10 µM"),
    ("CN(C)c1ccc(-c2ccc(-c3nc4ccc(OCCOCCOCCOc5ccc6c(c5)CN(C5CCC(=O)NC5=O)C6=O)cc4s3)c(C(F)(F)F)c2)cn1 (stereo not drawn)", "> 10 µM"),
    ("COc1ccc2nc(-c3ccc(-c4ccc(NCCOCCOc5cccc6c5C(=O)N(C5CCC(=O)NC5=O)C6=O)nc4)cc3)sc2c1 (stereo not drawn)", "> 10 µM"),
]

----------
molecular target: α-synuclein aggregates (Homo sapiens (Human)); test: ReNcell VM α-synuclein aggregation assay; assay type: cell-based; settings: ReNcell VM cells; read-out: Activity (DC50, concentration at which 50% of α-synuclein aggregates has been degraded)

# compound, DC50
rows = [
    ("CN(C)c1ccc(-c2ccc(-c3nc4ccc(NCCOCCOc5ccc6c(c5)C(=O)N(C5CCC(=O)NC5=O)C6=O)cc4s3)cc2)cn1 (stereo not drawn) [Compound 160219]", "> 10 µM"),
    ("COc1ccc2nc(-c3ccc(-c4ccc(NCCOCCOc5ccc6c(c5)CN(C5CCC(=O)NC5=O)C6=O)nc4)cc3)sc2c1 (stereo not drawn) [Compound 177039]", "> 10 µM"),
    ("CN(C)c1ccc(-c2ccc(-c3nc4ccc(NC(=O)CCCOc5ccc6c(c5)CN(C5CCC(=O)NC5=O)C6=O)cc4s3)cc2)cn1 (stereo not drawn) [Compound 170742]", "> 10 µM"),
    ("O=C1CCC(N2Cc3cc(OCCOCCNc4cc(-c5ccc(-c6cn7cc(F)ccc7n6)cc5)ccn4)ccc3C2=O)C(=O)N1 (stereo not drawn) [Compound 165824]", "> 10 µM"),
    ("COc1ccc2nc(-c3ccc(-c4ccnc(NCCOCCOc5ccc6c(c5)CN(C5CCC(=O)NC5=O)C6=O)c4)cc3)cn2c1 (stereo not drawn) [Compound 162640]", "0.01 to 0.9 µM"),
    ("CN(C)c1ccc2nc(-c3ccc(-c4ccc(NCCOCCN5C(=O)CCC(N6C(=O)c7ccc(O)cc7C6=O)C5=O)nc4)cc3)sc2c1 (stereo not drawn) [Compound 170351]", "0.9 to 10 µM"),
    ("CN(C)c1ccc(-c2ccc(-c3nc4ccc(NC(=O)CCOCCOCCOc5ccc6c(c5)CN(C5CCC(=O)NC5=O)C6=O)cc4s3)c(C(F)(F)F)c2)cn1 (stereo not drawn) [Compound 138266]", "> 10 µM"),
    ("COc1ccc2nc(-c3ccc(-c4ccnc(NCCCCCOc5ccc6c(c5)CN(C5CCC(=O)NC5=O)C6=O)c4)cc3)cn2c1 (stereo not drawn) [Compound 165802]", "> 10 µM"),
    ("CN(C)c1ccc(-c2ccc(-c3nc4ccc(OCCCOc5ccc6c(c5)CN(C5CCC(=O)NC5=O)C6=O)cc4s3)cc2)cn1 (stereo not drawn) [Compound 184605]", "> 10 µM"),
    ("CN(C)c1ccc(-c2ccc(-c3nc4ccc(OCCOCCOc5cccc6c5CN(C5CCC(=O)NC5=O)C6=O)cc4s3)c(C(F)(F)F)c2)cn1 (stereo not drawn) [Compound 180950]", "> 10 µM"),
    ("Cc1ncsc1-c1ccc(CNC(=O)[C@@H]2C[C@@H](O)CN2C(=O)[C@@H](NC(=O)COCCOCCOc2ccc3nc(-c4ccc(-c5ccc(N(C)C)nc5)cc4)sc3c2)C(C)(C)C)cc1 [Compound 178884]", "> 10 µM"),
    ("CN(C)c1ccc(-c2ccc(-c3nc4ccc(OCCCCC(=O)Nc5cccc6c5CN(C5CCC(=O)NC5=O)C6=O)cc4s3)cc2)cn1 (stereo not drawn) [Compound 189149]", "> 10 µM"),
]

----------
assay: In vivo pharmacokinetic study; conditions: mouse; Brain, 25 mg/kg intravenous, mice
valueKind: Cmax (ng/mL)

# molecule, valueKind, reportedValue
data = [
    ("CN(C)c1ccc(-c2ccc(-c3nc4ccc(NCCCCCOc5ccc6c(c5)CN(C5CCC(=O)NC5=O)C6=O)cc4s3)c(C(F)(F)F)c2)cn1 (stereo not shown)", "Cmax", 581),
]

----------
experiment: In vivo pharmacokinetic study; conditions: mouse; Plasma, 10 mg/kg intravenous, mice
valueKind: half-life (h)

# molecule, reportedValue
measured = [
    ("CN(C)c1ccc(-c2ccc(-c3nc4ccc(NCCCCCOc5ccc6c(c5)CN(C5CCC(=O)NC5=O)C6=O)cc4s3)c(C(F)(F)F)c2)cn1 (stereo not shown)", 2.87),
]

----------
Quick reference for DC50 among some compounds
biological target: α-synuclein aggregates (Homo sapiens (Human), UniProt P37840); test: ReNcell VM α-synuclein aggregation assay; format: cell-based; conditions: ReNcell VM cells; read-out: Activity (DC50, concentration at which 50% of α-synuclein aggregates has been degraded)

# compound, DC50
data = [
    ("CN(C)c1ccc(-c2ccc(-c3nc4ccc(OCCOCCOc5ccc6c(c5)CN(C5CCC(=O)NC5=O)C6=O)cc4o3)cc2)cn1 (stereo not drawn)", "0.01 to 0.9 µM"),
    ("CN(C)c1ccc2nc(-c3ccc(-c4ccc(NCCOCCOc5ccc6c(c5)CN(C5CCC(=O)NC5=O)C6=O)nc4)cc3C(F)(F)F)sc2c1 (stereo not drawn)", "> 10 µM"),
    ("Cc1ncsc1-c1ccc(CNC(=O)[C@@H]2C[C@@H](O)CN2C(=O)[C@@H](NC(=O)COCCOCCOCCOCCOCCNc2ccc3nc(-c4ccc(-c5ccc(N(C)C)nc5)cc4)sc3c2)C(C)(C)C)cc1 (racemic)", "> 10 µM"),
    ("CN(C)c1ccc(-c2ccc(-c3nc4ccc(NCCCCCOc5ccc6c(c5)C(=O)N(C5CCC(=O)NC5=O)C6=O)cc4s3)cc2)cn1 (stereo not drawn)", "> 10 µM"),
    ("O=C1CCC(N2C(=O)c3ccc(OCCOCCNc4ccc(-c5ccc(-c6cc7ccncc7[nH]6)cc5)cn4)cc3C2=O)C(=O)N1 (stereo not drawn)", "0.01 to 0.9 µM"),
    ("O=C1CCC(N2Cc3cc(OCCOCCOc4ccc5nc(-c6ccc(-c7ccc(NC8CC8)nc7)cc6)sc5c4)ccc3C2=O)C(=O)N1 (stereo not drawn)", "> 10 µM"),
]
